Biological target: Ba/F3_KRAS^G12D cells (Homo sapiens, UniProt P01116, G12D, cells depend on it)
Sequence (P01116 whole entry G12D): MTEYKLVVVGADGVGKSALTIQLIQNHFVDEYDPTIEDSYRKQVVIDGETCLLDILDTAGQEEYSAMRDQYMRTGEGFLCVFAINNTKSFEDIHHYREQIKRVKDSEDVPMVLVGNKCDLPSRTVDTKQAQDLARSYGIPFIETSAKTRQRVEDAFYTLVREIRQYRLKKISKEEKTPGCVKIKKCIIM
Assay: Ba/F3 KRAS G12D cell proliferation assay (CellTiter-Glo)
Format: cell-based
Conditions: treated for 3 days, cell-titer Glo, cell growth inhibition, read-out: BaF3_KRAS^G12D IC50
READOUT: GI50

INSERT INTO results (compound, readout, reported) VALUES
  ('CN1CC(F)(F)CC1COc1nc(N2CC3CCC(C2)N3)c2cc(Cl)c(-c3cc(O)cc4ccccc34)c(F)c2n1 (stereo not shown) [Compound 34]', 'GI50', '500 to 5000 nM'),
  ('Fc1c(-c2cccc3ccccc23)c(Cl)cc2c(N3CC4CCC(C3)N4)nc(OCC34CCCN3CCC4)nc12 [Compound 69]', 'GI50', '500 to 5000 nM'),
  ('CCOc1cc2c(N3CC4CCC(C3)N4)nc(OC[C@@]34CCCN3C[C@H](F)C4)nc2c(F)c1-c1cc(O)cc2cccc(CC)c12 [Compound 156]', 'GI50', '< 500 nM'),
  ('CN1CCC[C@H]1COc1nc(N2CC3CCC(C2)N3)c2cc(Cl)c(-c3cccc4cccc(Cl)c34)c(F)c2n1 [Compound 7]', 'GI50', '500 to 5000 nM');
